Test system: rodent lifetime carcinogenesis bioassay, tumor incidence TD50
Assay: carcinogenic potency in animals, long-term in vivo studies, CPDB compilation (AID 1745844)
Conditions: mouse; strain B6C3F1; males; in feed; site: all sites; lesion: hemangioma + hemangiosarcoma; dosed 102 weeks; study length 102 weeks

{"compound.smiles": "Cc1ccccc1N", "TD50": "926 mg/kg/day"}

* * *

Tested on: rodent lifetime carcinogenesis bioassay, tumor incidence TD50
Experiment: carcinogenic potency in animals, long-term in vivo studies, CPDB compilation (AID 1745844)
Settings: rat; strain F344/DuCrj; females; in drinking water; site: ear duct; lesion: several types; types named in the paper; dosed 50 weeks; study length 50 weeks

{"compound.smiles": "CCCCN(N=O)C(N)=O", "TD50": "11.6 mg/kg/day"}
